Could you please report measured ELISA reading for the items listed next?
biological target: T1, soluble KDR extracellular domain (ECD) (Calbiochem) (human, UniProt P35968 20-764); assay: High Antigen ELISA, KDR coat 500 ng/mL, supernatant 1:25
T1 construct: extracellular domain; Bought protein; also called KDR-ECD; VEGF Receptor 2 D1-7, Cat. #676490
T1 sequence (P35968 20-764): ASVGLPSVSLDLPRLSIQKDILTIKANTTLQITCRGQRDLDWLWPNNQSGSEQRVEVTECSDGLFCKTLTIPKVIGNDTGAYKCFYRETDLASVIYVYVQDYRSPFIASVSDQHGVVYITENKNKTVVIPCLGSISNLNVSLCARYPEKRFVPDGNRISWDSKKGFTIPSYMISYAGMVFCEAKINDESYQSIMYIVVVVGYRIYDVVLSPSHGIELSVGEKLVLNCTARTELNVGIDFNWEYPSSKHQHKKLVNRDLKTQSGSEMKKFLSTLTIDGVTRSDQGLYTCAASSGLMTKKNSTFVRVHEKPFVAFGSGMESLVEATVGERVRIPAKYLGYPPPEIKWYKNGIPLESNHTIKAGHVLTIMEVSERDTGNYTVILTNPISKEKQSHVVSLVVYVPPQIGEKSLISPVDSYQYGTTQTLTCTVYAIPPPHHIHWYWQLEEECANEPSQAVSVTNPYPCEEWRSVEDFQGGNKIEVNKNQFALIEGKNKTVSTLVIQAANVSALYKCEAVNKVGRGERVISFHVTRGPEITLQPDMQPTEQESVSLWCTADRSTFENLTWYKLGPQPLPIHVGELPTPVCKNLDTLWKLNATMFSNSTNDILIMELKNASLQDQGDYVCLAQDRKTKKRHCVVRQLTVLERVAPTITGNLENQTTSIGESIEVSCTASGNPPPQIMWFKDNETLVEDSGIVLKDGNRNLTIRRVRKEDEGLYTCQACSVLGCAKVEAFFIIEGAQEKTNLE
Answers are plain numbers.

Here are 2 binders together with their reported answers.
BINDER: 33B1 (antibody, V domains shown, Fully human mAb from XenoMouse hybridoma, tested as hybridoma supernatant) VH: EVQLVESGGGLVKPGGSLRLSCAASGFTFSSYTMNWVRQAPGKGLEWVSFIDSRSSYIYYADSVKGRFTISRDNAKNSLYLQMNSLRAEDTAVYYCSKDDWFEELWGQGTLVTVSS VL: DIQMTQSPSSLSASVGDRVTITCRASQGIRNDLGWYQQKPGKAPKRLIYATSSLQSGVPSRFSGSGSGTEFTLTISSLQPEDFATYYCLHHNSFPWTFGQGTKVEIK
QUANTITY NAME: ELISA reading
READING: 2.71
//
BINDER: 24C9 (antibody, V domains shown, Fully human mAb from XenoMouse hybridoma, tested as hybridoma supernatant) VH: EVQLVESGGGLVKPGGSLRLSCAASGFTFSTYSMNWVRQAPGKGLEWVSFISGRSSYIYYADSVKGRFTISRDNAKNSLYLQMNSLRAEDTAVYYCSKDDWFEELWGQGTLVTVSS VL: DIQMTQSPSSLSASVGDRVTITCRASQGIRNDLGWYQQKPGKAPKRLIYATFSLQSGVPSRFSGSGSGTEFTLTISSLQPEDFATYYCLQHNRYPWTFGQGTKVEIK
QUANTITY NAME: ELISA reading
READING: 3.67

Turning now to a further binder:
INPUT: I am curious: what ELISA reading value has been reported for 33E1 (antibody, V domains shown, Fully human mAb from XenoMouse hybridoma, tested as hybridoma supernatant) VH: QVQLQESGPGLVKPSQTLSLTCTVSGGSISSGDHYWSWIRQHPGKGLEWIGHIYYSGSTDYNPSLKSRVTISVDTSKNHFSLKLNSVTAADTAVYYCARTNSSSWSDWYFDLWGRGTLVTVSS VL: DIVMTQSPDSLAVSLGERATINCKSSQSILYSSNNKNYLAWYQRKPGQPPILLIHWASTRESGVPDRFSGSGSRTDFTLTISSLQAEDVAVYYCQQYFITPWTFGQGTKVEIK ?
OUTPUT: 4.06
